Molecular target: human CB2 (Homo sapiens)
Sequence (P34972 whole entry): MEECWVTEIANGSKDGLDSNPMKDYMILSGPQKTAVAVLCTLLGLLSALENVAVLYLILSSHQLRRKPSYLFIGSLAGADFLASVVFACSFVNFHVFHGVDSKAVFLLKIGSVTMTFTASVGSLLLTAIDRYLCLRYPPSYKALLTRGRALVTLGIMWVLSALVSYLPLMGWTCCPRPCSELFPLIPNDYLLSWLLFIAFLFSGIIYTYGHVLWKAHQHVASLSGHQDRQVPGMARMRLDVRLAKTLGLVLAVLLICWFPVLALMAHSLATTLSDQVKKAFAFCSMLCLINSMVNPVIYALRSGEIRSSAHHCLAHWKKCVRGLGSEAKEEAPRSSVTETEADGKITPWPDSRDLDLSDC
Experiment: Cyclic AMP assay (HTRF), CHO cells expressing human CB2
Assay type: cell-based
Conditions: CHO, read-out: CB2 Emax
Value kind: Emax

Asked: Dear colleague, I am looking for the recorded Emax of the following compound: O=C(c1cccc(Cl)c1)c1nc(-c2ccc(F)cc2)n2ccccc12
Given back: 63.7%

Asked: Dear colleague, I am looking for the recorded Emax of the following compound: O=C(c1ccc2ccccc2c1)c1nc(CN2CCOCC2)c2ccccn12
Given back: 76.7%

Asked: Dear colleague, I am looking for the recorded Emax of the following compound: O=C(NCC1CCOCC1)c1nc(-c2cccnc2)n2ccccc12
Given back: 74.7%

Asked: Dear colleague, I am looking for the recorded Emax of the following compound: O=C(NC(C1CC1)C1CC1)c1nc(-c2ccc(F)cc2)c2ccccn12
Given back: 96.4%

Asked: Dear colleague, I am looking for the recorded Emax of the following compound: CC(NC(=O)c1nc(Cl)c2ccccn12)c1ccccc1Cl (stereo not shown)
Given back: 83.8%

Asked: Dear colleague, I am looking for the recorded Emax of the following compound: O=C(Nc1cccc2cnccc12)c1nc(C(=O)N2CCC(F)CC2)n2ccccc12
Given back: 79.5%

Asked: Dear colleague, I am looking for the recorded Emax of the following compound: O=C(NC12CC3CC(CC(C3)C1)C2)c1nc(C2CCCN2)n2ccccc12 (stereo not shown)
Given back: 87.1%

Asked: Dear colleague, I am looking for the recorded Emax of the following compound: O=C(NC12CC3CC(CC(C3)C1)C2)c1nc(C(O)c2cccnc2)n2ccccc12 (stereo not shown)
Given back: 80.8%

Asked: Dear colleague, I am looking for the recorded Emax of the following compound: O=C(NC1(c2ccccc2)CC1)c1nc(-c2cccc(F)c2)n2ccccc12
Given back: 69.8%

Asked: Dear colleague, I am looking for the recorded Emax of the following compound: CC(NC(=O)c1nc(N2CCOCC2)n2ccccc12)C(C)(C)C (stereo not shown)
Given back: 99.5%
